// provenance: PubChem BioAssay AID1996

Settings: buffer; pH 7.4; 200.0 µM
Please use class 1 whenever solubility kinetic is not below 30 µg/mL, and class 0 whenever it is.

API: above_or_equal(metric=solubility kinetic, cutoff=30 µg/mL) for item `Cc1nc(-c2ccc(NC(=O)c3ccco3)cc2)cs1`
class 0

API: above_or_equal(metric=solubility kinetic, cutoff=30 µg/mL) for item `c1ccc2c(c1)COC(CN1CCCCC1)OC2`
class 1

API: above_or_equal(metric=solubility kinetic, cutoff=30 µg/mL) for item `Cc1cc(Cc2ccc([N+](=O)[O-])cc2)c(C)cn1`
class 1

API: above_or_equal(metric=solubility kinetic, cutoff=30 µg/mL) for item `CCOC(=O)Cn1cnc2scc(-c3ccc(C)c(C)c3)c2c1=O`
class 0

API: above_or_equal(metric=solubility kinetic, cutoff=30 µg/mL) for item `CC(C)(C)C(=O)Nc1cccc(S(=O)(=O)NC2=NCCC2)c1`
class 1

API: above_or_equal(metric=solubility kinetic, cutoff=30 µg/mL) for item `Cc1c(NC(=O)c2cc(S(=O)(=O)N3CCCCC3)ccc2Cl)c(=O)n(-c2ccccc2)n1C`
class 1

API: above_or_equal(metric=solubility kinetic, cutoff=30 µg/mL) for item `Cc1[nH]c2ccc(C(=O)Nc3ccncc3)cc2c1C`
class 1

API: above_or_equal(metric=solubility kinetic, cutoff=30 µg/mL) for item `Cc1nc2ccc([N+](=O)[O-])cc2c(=O)n1Cc1ccc(F)cc1`
class 0

API: above_or_equal(metric=solubility kinetic, cutoff=30 µg/mL) for item `Cc1cccn2c(=O)c3cc(C(=O)NC4CCCC4)sc3nc12`
class 0

API: above_or_equal(metric=solubility kinetic, cutoff=30 µg/mL) for item `COC(=O)c1ccc(NC(=O)CNc2ccccc2)cc1`
class 0

API: above_or_equal(metric=solubility kinetic, cutoff=30 µg/mL) for item `CCOC(=O)c1c(NC(C)=O)sc(C(=O)NC2CCCC2)c1C`
class 0

API: above_or_equal(metric=solubility kinetic, cutoff=30 µg/mL) for item `CCCSc1ncnc2sc(C)c(C)c12`
class 0

API: above_or_equal(metric=solubility kinetic, cutoff=30 µg/mL) for item `Cc1cc(C)c(S(=O)(=O)c2ccccc2C(C)C)c(=O)[nH]1`
class 0

API: above_or_equal(metric=solubility kinetic, cutoff=30 µg/mL) for item `CCCCSc1nc(O)cc(=O)n1CC`
class 1

API: above_or_equal(metric=solubility kinetic, cutoff=30 µg/mL) for item `CCS(=O)(=O)NCCc1csc(-c2ccc(OC)c(OC)c2)n1`
class 1

API: above_or_equal(metric=solubility kinetic, cutoff=30 µg/mL) for item `CCCCNC(=O)c1cc(-c2ccc3c(c2)OCO3)on1`
class 0

API: above_or_equal(metric=solubility kinetic, cutoff=30 µg/mL) for item `CSc1cccc(NC(N)=O)c1`
class 0

API: above_or_equal(metric=solubility kinetic, cutoff=30 µg/mL) for item `O=C(Nc1ccc2c(c1)OCO2)c1ccccn1`
class 1

API: above_or_equal(metric=solubility kinetic, cutoff=30 µg/mL) for item `Cc1cc([N+](=O)[O-])ccc1NC(=O)CCC(=O)N1CCCC1`
class 1

API: above_or_equal(metric=solubility kinetic, cutoff=30 µg/mL) for item `N#C/C(=C\c1ccccc1)C(=O)NC1CC1`
class 1

API: above_or_equal(metric=solubility kinetic, cutoff=30 µg/mL) for item `O=C1COc2ccc(C(=O)COC(=O)c3ccccc3F)cc2N1`
class 0

API: above_or_equal(metric=solubility kinetic, cutoff=30 µg/mL) for item `Nc1cc(=O)[nH]c(SCc2ccc(Cl)cc2Cl)n1`
class 0

API: above_or_equal(metric=solubility kinetic, cutoff=30 µg/mL) for item `Cc1ccc(O)c(NC(=O)C2CCCCC2)c1`
class 1

API: above_or_equal(metric=solubility kinetic, cutoff=30 µg/mL) for item `CS(=O)(=O)CCSc1ncccc1C(=O)NCc1cccs1`
class 1

API: above_or_equal(metric=solubility kinetic, cutoff=30 µg/mL) for item `Cc1cc(C)cc(Nc2nc3ccccc3c(=O)[nH]2)c1`
class 0

* * *

Kindly state solubility kinetic for each of the entries shown.
Conditions: buffer; pH 7.4; 200.0 µM

Please list solubility kinetic recorded for the compound `COc1cc(SC)ccc1C(=O)N(Cc1ccccc1)c1ccccn1`
> 54.7 µg/mL

Please list solubility kinetic recorded for the compound `Cc1ccc(C(=O)NCc2ccc3c(c2)OCO3)cc1C`
31.7 µg/mL

Please list solubility kinetic recorded for the compound `O=C(CN1C(=O)NC2(CCCC2)C1=O)Nc1ccc(F)c(Cl)c1`
> 51 µg/mL

Please list solubility kinetic recorded for the compound `N#CC1(NC(=O)CSc2ccccn2)CCCCC1`
> 41.3 µg/mL

Please list solubility kinetic recorded for the compound `O=C(O)c1cccnc1`
> 18.5 µg/mL

Please list solubility kinetic recorded for the compound `COc1ccc(S(=O)(=O)N2CCN(C(=O)c3cc4c(s3)CCC4)CC2)cc1`
7.7 µg/mL

Please list solubility kinetic recorded for the compound `CCc1c(C)nc2c(OC)cccc2c1Cl`
7.7 µg/mL

Please list solubility kinetic recorded for the compound `CSCCCNC(=S)Nc1ccc(N2CCOCC2)cc1`
> 48.8 µg/mL

Please list solubility kinetic recorded for the compound O=[N+]([O-])C(C1CCS(=O)(=O)C1)C1CCS(=O)(=O)C1 (stereo unspecified)
41.8 µg/mL

Please list solubility kinetic recorded for the compound `Cc1ccc(C)c(NC(=O)C[n+]2ccccc2)c1.[Cl-]`
40.8 µg/mL

Please list solubility kinetic recorded for the compound `Cc1cc(NC(=O)CSCC(=O)N2CCN(c3ccccc3)CC2)no1`
> 56.2 µg/mL

Please list solubility kinetic recorded for the compound COc1ccccc1N1C(=O)CC(N(O)c2ccccc2)C1=O (stereo unspecified)
> 46.8 µg/mL

Please list solubility kinetic recorded for the compound Nn1c(SCC(=O)NCC2CCCO2)nnc1-c1ccco1 (stereo unspecified)
> 48.5 µg/mL

Please list solubility kinetic recorded for the compound `Cc1ccc(S(=O)(=O)N2CCOCC2)cc1C(=O)N1CCc2ccccc21`
54.3 µg/mL

Please list solubility kinetic recorded for the compound `Cc1ccc(NC(=O)COC(=O)c2nn(C)cc2Cl)cc1`
> 46.2 µg/mL

Please list solubility kinetic recorded for the compound Cc1ccc(C(O)P(=O)(OC(C)C)c2ccc(N(C)C)cc2)cc1 (stereo unspecified)
> 52.1 µg/mL

Please list solubility kinetic recorded for the compound `O=C(Cc1ccccc1F)Nc1cc(S(=O)(=O)N2CCOCC2)ccc1N1CCCC1`
15.1 µg/mL

Please list solubility kinetic recorded for the compound `O=S(=O)(CCN1CCCCC1)Oc1ccc(Cl)cc1Cl`
50.5 µg/mL

Please list solubility kinetic recorded for the compound `Cc1c(C(=O)NC2CCCC2)oc2ccccc12`
33.9 µg/mL

Please list solubility kinetic recorded for the compound `COc1ccc(/C=C/c2c([N+](=O)[O-])c(=O)n(C)c(=O)n2C)cc1`
3.4 µg/mL

Please list solubility kinetic recorded for the compound `Cc1cnc(C(=O)OCC(=O)Nc2ccc(Cl)cn2)cn1`
> 46 µg/mL

Please list solubility kinetic recorded for the compound `Cc1cc(C)c(OCCCON2C(=O)CCC2=O)c(Br)c1`
> 53.4 µg/mL

Please list solubility kinetic recorded for the compound `CC(=O)Nc1cc(C)c2nc(NC(C)=O)sc2c1`
25.7 µg/mL

Please list solubility kinetic recorded for the compound `CC(=O)C1=C(O)CC(C)(C)CC1=NCc1nc2ccccc2[nH]1`
> 46.7 µg/mL

Please list solubility kinetic recorded for the compound `COc1ccc(C(=O)N2CCn3c2nc2ccccc23)cc1`
6.7 µg/mL

Please list solubility kinetic recorded for the compound `COC(=O)c1cn(C(=O)c2ccc(OC)c(OC)c2)c2ccccc12`
1.2 µg/mL

Please list solubility kinetic recorded for the compound CC(=O)Nc1ccc(S(=O)(=O)N2CCN3CCCC3C2)cc1 (stereo unspecified)
> 48.5 µg/mL

Please list solubility kinetic recorded for the compound `O=C(COC(=O)c1cc(S(=O)(=O)N2CCCC2)ccc1O)Nc1ccccc1Br`
9.6 µg/mL

Please list solubility kinetic recorded for the compound `Cc1ccc(/C=C/C(=O)NCc2cccs2)c(C)c1`
< 0.6 µg/mL

Please list solubility kinetic recorded for the compound `OCCNc1nc(Cl)nc(NCc2ccco2)n1`
> 40.5 µg/mL

Please list solubility kinetic recorded for the compound `CCOc1ccc(C(=O)CCC(=O)Nc2ccncc2)cc1`
42.9 µg/mL

Please list solubility kinetic recorded for the compound CC1(C)CC2CC(C)(CN2C(=O)COC(=O)c2ccc(NC(=O)CC#N)cc2)C1 (stereo unspecified)
7.6 µg/mL

Please list solubility kinetic recorded for the compound `O=C(NCCCCc1ccccc1)c1ccccc1`
14.4 µg/mL

Please list solubility kinetic recorded for the compound `Cc1cccc(C(=O)OCC(=O)Nc2ccc3c(c2)OCCO3)c1`
8.2 µg/mL

Please list solubility kinetic recorded for the compound `[O-][n+]1c(/C=C/c2ccccc2)ccc2ccccc21`
> 37.1 µg/mL

Please list solubility kinetic recorded for the compound `N#CN(Cc1ccccc1)Cc1ccccc1`
18.6 µg/mL

Please list solubility kinetic recorded for the compound `CC(=O)Nc1ccc(NC(=O)CSc2ccc([N+](=O)[O-])cn2)cc1`
3 µg/mL

Please list solubility kinetic recorded for the compound `CN(C(=O)COC(=O)Cn1cnc2ccccc21)C1CCCCC1`
45 µg/mL

Please list solubility kinetic recorded for the compound CCCc1ccc(OCC(O)CN2CCCC2)cc1.Cl (stereo unspecified)
37.2 µg/mL

Please list solubility kinetic recorded for the compound `O=C(CCC(=O)N1CCOCC1)c1ccc(F)cc1`
> 39.8 µg/mL

Please list solubility kinetic recorded for the compound CCc1ccc(OCC(O)CN2CCCC2)cc1.Cl (stereo unspecified)
39.8 µg/mL

Please list solubility kinetic recorded for the compound `Cc1cc2sc3nc(=O)n(-c4ccccc4)c(=O)n3c2cc1C`
5.8 µg/mL

Please list solubility kinetic recorded for the compound `Cc1ccc(C)c(NC(=S)NC23CN4CN(CN(C4)C2)C3)c1`
> 47.6 µg/mL

Please list solubility kinetic recorded for the compound `CCOC(=O)c1cc2cc([N+](=O)[O-])ccc2oc1=O`
18.9 µg/mL

Please list solubility kinetic recorded for the compound `COc1cc(NC(=O)c2ccc(Cl)cc2)c2ncccc2c1`
< 0.3 µg/mL

Please list solubility kinetic recorded for the compound `COc1ccc(NC(=S)Nc2ccc(F)cc2)cc1`
27.7 µg/mL
